// reported melting point per item

Study these solved cases before continuing.
{"Molecule": "C=CCn1c(C)cs/c1=N\\NS(=O)(=O)c1ccc(C)cc1 [Compound 3h]", "melting point": "236 to 238 °C"}
{"Molecule": "C=CCn1c(C)cs/c1=N\\Nc1ccc([N+](=O)[O-])cc1[N+](=O)[O-] [Compound 3c]", "melting point": "197 to 198 °C"}
{"Molecule": "Cc1ccc(S(=O)(=O)N/N=c2\\scc(C)n2-c2ccccc2)cc1 [Compound 3g]", "melting point": "193 to 194 °C"}

Looking for the measured melting point of CCn1c(C)cs/c1=N\NS(=O)(=O)c1ccc(C)cc1 [Compound 3i] , can you help?
236 to 238 °C

Looking for the measured melting point of Cc1cs/c(=N\Nc2ccc([N+](=O)[O-])cc2[N+](=O)[O-])n1Cc1ccccc1 [Compound 3a] , can you help?
215 to 217 °C

###

- Test summary: in vitro
- Condition: human
Endpoint: viability at 96 h, 50 µM (%)
Numeric answer only, unit % assumed.

{"Structure as smiles": "Cc1cs/c(=N\\Nc2ccc([N+](=O)[O-])cc2[N+](=O)[O-])n1-c1ccccc1", "viability at 96 h, 50 µM [%]": 87}
{"Structure as smiles": "CCn1c(C)cs/c1=N\\Nc1ccc([N+](=O)[O-])cc1[N+](=O)[O-]", "viability at 96 h, 50 µM [%]": 91}

We next turn to a different molecule, shown below.
Looking for the measured viability at 96 h, 50 µM of "Cc1ccc(-n2c(C)cs/c2=N/Nc2ccc([N+](=O)[O-])cc2[N+](=O)[O-])cc1" , can you help?
89

###

- Target under test: EGFR (Homo sapiens)
- Construct: CD, amino acids 645–1186); His6 (N); made in house; host or cells: Sf-9 insect cells (baculovirus; pBlueBacHis2B / pFASTBacHTc
- Sequence (P00533 669-1210): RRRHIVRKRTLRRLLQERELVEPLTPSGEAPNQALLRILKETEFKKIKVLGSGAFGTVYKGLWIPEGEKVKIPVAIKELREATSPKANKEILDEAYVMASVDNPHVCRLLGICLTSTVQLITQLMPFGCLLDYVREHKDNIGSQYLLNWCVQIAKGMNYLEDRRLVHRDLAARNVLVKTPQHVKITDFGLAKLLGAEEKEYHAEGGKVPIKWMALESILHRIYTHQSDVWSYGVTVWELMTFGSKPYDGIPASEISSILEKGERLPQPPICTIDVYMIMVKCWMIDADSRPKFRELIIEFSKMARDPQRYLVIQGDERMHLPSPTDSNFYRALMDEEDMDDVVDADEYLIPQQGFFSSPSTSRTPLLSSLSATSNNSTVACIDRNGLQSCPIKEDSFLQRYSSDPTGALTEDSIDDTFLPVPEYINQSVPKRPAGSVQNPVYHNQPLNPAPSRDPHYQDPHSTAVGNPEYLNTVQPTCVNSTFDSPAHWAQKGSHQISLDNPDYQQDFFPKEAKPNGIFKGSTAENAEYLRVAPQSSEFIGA
- Test summary: EGFR-TK inhibitory assay
- Format: biochemical
- Condition: read-out: EGFR Inhibition IC50 ± SEM
Endpoint: pIC50
Formally, pIC50 is defined as -log10 of the concentration c, with c in mol/L.

Study these solved cases before continuing.
{"Compound": "Cc1cs/c(=N\\Nc2ccc([N+](=O)[O-])cc2[N+](=O)[O-])n1Cc1ccccc1 [Compound 3a]", "pIC50": 7.03}
{"Compound": "Cc1ccc(-n2c(C)cs/c2=N/Nc2ccc([N+](=O)[O-])cc2[N+](=O)[O-])cc1 [Compound 3f]", "pIC50": 7.05}
{"Compound": "C=CCn1c(C)cs/c1=N\\Nc1ccc([N+](=O)[O-])cc1[N+](=O)[O-] [Compound 3c]", "pIC50": 7.01}

Looking for the measured pIC50 of Cc1cs/c(=N/Nc2ccc([N+](=O)[O-])cc2[N+](=O)[O-])n1C1CCCCC1 [Compound 3d] , can you help?
7.04

###

// reported IC50 per item
- Target under test: BRAF^V600E (Mus musculus, UniProt P28028, V585E)
- Construct: Mouse full-length GST-tagged BRAFV600E (7.5 ng,; GST
- Sequence (P28028 whole entry V585E): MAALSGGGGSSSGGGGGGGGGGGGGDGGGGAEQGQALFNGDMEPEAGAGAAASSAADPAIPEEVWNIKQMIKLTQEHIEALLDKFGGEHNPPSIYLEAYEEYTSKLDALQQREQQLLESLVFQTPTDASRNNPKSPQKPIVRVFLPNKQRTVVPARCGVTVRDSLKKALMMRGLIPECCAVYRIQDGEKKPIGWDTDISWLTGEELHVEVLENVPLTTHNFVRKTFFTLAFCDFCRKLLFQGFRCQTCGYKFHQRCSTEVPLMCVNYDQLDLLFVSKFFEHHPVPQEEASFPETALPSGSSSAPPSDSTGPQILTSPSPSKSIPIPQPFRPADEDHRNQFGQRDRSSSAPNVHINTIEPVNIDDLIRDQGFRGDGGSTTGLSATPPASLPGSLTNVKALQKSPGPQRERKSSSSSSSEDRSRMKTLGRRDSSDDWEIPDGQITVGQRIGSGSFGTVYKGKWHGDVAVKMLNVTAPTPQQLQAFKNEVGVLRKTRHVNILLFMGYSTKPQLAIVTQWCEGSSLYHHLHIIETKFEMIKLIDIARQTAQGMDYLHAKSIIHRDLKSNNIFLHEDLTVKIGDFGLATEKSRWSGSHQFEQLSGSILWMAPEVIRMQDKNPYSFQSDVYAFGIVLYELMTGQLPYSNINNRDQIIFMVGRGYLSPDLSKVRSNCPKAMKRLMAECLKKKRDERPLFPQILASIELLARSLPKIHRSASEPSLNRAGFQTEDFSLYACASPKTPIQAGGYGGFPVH
- Test summary: BRAF^V600E inhibitory assay
- Condition: read-out: BRAF^V600E Inhibition IC50 ± SEM
Numeric answer only, unit nM assumed.

Study these solved cases before continuing.
{"Molecule": "C=CCn1c(C)cs/c1=N\\Nc1ccc([N+](=O)[O-])cc1[N+](=O)[O-] [Compound 3c]", "Unit info": "nM", "Observed": 126}
{"Molecule": "Cc1ccc(-n2c(C)cs/c2=N/Nc2ccc([N+](=O)[O-])cc2[N+](=O)[O-])cc1 [Compound 3f]", "Unit info": "nM", "Observed": 93}
{"Molecule": "Cc1cs/c(=N\\Nc2ccc([N+](=O)[O-])cc2[N+](=O)[O-])n1Cc1ccccc1 [Compound 3a]", "Unit info": "nM", "Observed": 117}

We next turn to a different molecule, shown below.
Looking for the measured IC50 of Cc1cs/c(=N/Nc2ccc([N+](=O)[O-])cc2[N+](=O)[O-])n1C1CCCCC1 [Compound 3d] , can you help?
112

These entries and their values trace back to paper PMC10384562.
